Source: ChEMBL document CHEMBL3596188

target: Cystic fibrosis transmembrane conductance regulator (Homo sapiens, UniProt P13569, F508DEL); assay: Corrector activity at CFTR F508del mutant (unknown origin) expressed in human CFBE41o cells assessed as iodide influx after 24 hrs by HS-YFP assay; format: cell-based
pEC50: −log10 of the molar value.
pEC50: recorded values
Recorded endpoint: pEC50

line_notation=CSc1cccc(Nc2nc(-c3ccc(Cl)c(Cl)c3)cs2)c1 quantitative_readout=4.85
line_notation=CSc1cccc(Nc2nc(-c3cccc(Cl)c3)cs2)c1 quantitative_readout=5.28
line_notation=CSc1cccc(Nc2nc(-c3cccs3)cs2)c1 quantitative_readout=5.07
line_notation=CSc1cccc(Nc2nc(-c3sc(-c4ccccc4)nc3C)cs2)c1 quantitative_readout=5.24

###

system: Cystic fibrosis transmembrane conductance regulator (Homo sapiens), P13569 [F508del]; assay: Corrector activity at CFTR F508del mutant (unknown origin) expressed in human CFBE41o cells assessed as iodide influx at 10 uM after 24 hrs by HS-YFP assay; type: cell-based
Sequence (P13569 as listed by the source): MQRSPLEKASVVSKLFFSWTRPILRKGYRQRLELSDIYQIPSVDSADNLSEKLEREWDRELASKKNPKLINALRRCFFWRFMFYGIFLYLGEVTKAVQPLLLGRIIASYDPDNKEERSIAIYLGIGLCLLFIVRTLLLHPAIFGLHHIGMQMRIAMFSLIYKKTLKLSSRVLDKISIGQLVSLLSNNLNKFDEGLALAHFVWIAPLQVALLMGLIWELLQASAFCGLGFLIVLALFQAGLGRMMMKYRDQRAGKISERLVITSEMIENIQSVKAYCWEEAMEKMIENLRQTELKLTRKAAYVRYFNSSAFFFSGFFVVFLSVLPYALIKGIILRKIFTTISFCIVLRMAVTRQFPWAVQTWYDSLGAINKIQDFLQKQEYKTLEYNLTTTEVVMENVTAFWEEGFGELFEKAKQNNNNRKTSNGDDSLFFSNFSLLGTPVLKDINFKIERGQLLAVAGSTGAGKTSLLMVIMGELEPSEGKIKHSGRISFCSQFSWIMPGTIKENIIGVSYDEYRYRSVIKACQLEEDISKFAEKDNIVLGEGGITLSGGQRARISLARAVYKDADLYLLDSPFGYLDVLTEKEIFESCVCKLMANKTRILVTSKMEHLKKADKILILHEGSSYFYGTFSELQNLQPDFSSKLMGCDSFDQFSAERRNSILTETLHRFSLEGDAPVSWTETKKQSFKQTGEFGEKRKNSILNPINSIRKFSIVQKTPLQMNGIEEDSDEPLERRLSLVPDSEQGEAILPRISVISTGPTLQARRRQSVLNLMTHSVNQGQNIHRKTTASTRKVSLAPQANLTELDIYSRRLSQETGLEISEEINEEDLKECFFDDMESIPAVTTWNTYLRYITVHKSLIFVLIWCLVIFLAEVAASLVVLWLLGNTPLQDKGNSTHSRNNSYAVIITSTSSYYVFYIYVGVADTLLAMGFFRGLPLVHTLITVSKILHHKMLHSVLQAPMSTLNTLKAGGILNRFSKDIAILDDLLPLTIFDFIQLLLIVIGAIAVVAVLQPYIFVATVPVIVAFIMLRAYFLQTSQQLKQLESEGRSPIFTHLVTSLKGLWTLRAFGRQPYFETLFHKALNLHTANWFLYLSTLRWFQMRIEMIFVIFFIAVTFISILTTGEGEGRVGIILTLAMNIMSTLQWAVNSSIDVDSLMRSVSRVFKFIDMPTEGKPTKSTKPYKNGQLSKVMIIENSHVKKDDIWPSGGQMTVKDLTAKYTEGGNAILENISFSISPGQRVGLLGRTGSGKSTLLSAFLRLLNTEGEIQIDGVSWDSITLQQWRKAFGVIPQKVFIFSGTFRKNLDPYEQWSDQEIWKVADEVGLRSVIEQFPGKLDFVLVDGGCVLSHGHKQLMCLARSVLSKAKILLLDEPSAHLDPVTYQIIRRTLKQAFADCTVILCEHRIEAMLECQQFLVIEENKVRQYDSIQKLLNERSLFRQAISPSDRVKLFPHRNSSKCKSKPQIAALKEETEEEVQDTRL
Calls of active or inactive are those of the source. The rule behind the calls is not given here.
Outcome codes: 1 = active, 0 = inactive

line_notation=COc1ccc(-c2csc(Nc3cccc(SC)c3)n2)cc1Cl system="Cystic fibrosis transmembrane conductance regulator (Homo sapiens), P13569 [F508del]" group=0
line_notation=CSc1cccc(Nc2nc(-c3ccc(-c4ccccn4)s3)cs2)c1 system="Cystic fibrosis transmembrane conductance regulator (Homo sapiens), P13569 [F508del]" group=0
line_notation=CSc1cccc(Nc2nc(-c3ccc(Cl)c(Cl)c3)cs2)c1 system="Cystic fibrosis transmembrane conductance regulator (Homo sapiens), P13569 [F508del]" group=1
line_notation=CSc1cccc(Nc2nc(-c3ccc(Cl)cc3)c(-c3ccc(C)cc3)s2)c1 system="Cystic fibrosis transmembrane conductance regulator (Homo sapiens), P13569 [F508del]" group=0
line_notation=CSc1cccc(Nc2nc(-c3cccc(OCC(=O)O)c3)cs2)c1 system="Cystic fibrosis transmembrane conductance regulator (Homo sapiens), P13569 [F508del]" group=0
line_notation=CSc1cccc(Nc2nc(-c3cc(Cl)cs3)cs2)c1 system="Cystic fibrosis transmembrane conductance regulator (Homo sapiens), P13569 [F508del]" group=0
line_notation=CSc1cccc(Nc2nc(-c3cccc(O)c3)cs2)c1 system="Cystic fibrosis transmembrane conductance regulator (Homo sapiens), P13569 [F508del]" group=0
line_notation=CSc1cccc(Nc2nc(-c3ccc(C#N)cc3)cs2)c1 system="Cystic fibrosis transmembrane conductance regulator (Homo sapiens), P13569 [F508del]" group=0
line_notation=CSc1cccc(Nc2nc(-c3cccc(SC)c3)cs2)c1 system="Cystic fibrosis transmembrane conductance regulator (Homo sapiens), P13569 [F508del]" group=0
line_notation=CSc1cccc(Nc2nc(-c3cc(C)cs3)cs2)c1 system="Cystic fibrosis transmembrane conductance regulator (Homo sapiens), P13569 [F508del]" group=0
line_notation=Brc1ccc(-c2csc(N(Cc3ccccc3)Cc3ccccc3)n2)cc1 system="Cystic fibrosis transmembrane conductance regulator (Homo sapiens), P13569 [F508del]" group=0
line_notation=CSc1cccc(Nc2nc(-c3ccc(S(C)(=O)=O)cc3)cs2)c1 system="Cystic fibrosis transmembrane conductance regulator (Homo sapiens), P13569 [F508del]" group=0
line_notation=CSc1cccc(Nc2nc(-c3ccc(Cl)c(C)c3)cs2)c1 system="Cystic fibrosis transmembrane conductance regulator (Homo sapiens), P13569 [F508del]" group=0
line_notation=CSc1cccc(Nc2nc(-c3c(Cl)ccc(F)c3Cl)cs2)c1 system="Cystic fibrosis transmembrane conductance regulator (Homo sapiens), P13569 [F508del]" group=0
line_notation=CSc1cccc(Nc2nc(-c3cccc([N+](=O)[O-])c3)cs2)c1 system="Cystic fibrosis transmembrane conductance regulator (Homo sapiens), P13569 [F508del]" group=0
line_notation=CSc1cccc(Nc2nc(-c3ccc4c(c3)NC(=O)CS4)cs2)c1 system="Cystic fibrosis transmembrane conductance regulator (Homo sapiens), P13569 [F508del]" group=0
line_notation=CCCSc1cccc(Nc2nc(-c3cccc(Cl)c3)cs2)c1 system="Cystic fibrosis transmembrane conductance regulator (Homo sapiens), P13569 [F508del]" group=0
line_notation=CSc1cccc(Nc2nc(-c3ccccc3Cl)cs2)c1 system="Cystic fibrosis transmembrane conductance regulator (Homo sapiens), P13569 [F508del]" group=0
line_notation=CSc1cccc(Nc2nc(-c3cc(Cl)cc(Cl)c3O)cs2)c1 system="Cystic fibrosis transmembrane conductance regulator (Homo sapiens), P13569 [F508del]" group=0
line_notation=CSc1cccc(Nc2nc(-c3cccc(Cl)c3Cl)cs2)c1 system="Cystic fibrosis transmembrane conductance regulator (Homo sapiens), P13569 [F508del]" group=0
line_notation=CSc1cccc(Nc2nc(-c3cc(C)n(-c4ccc(Cl)cc4)c3C)cs2)c1 system="Cystic fibrosis transmembrane conductance regulator (Homo sapiens), P13569 [F508del]" group=0
line_notation=CSc1cccc(Nc2nc(-c3cn(-c4ccccc4)c(C)n3)cs2)c1 system="Cystic fibrosis transmembrane conductance regulator (Homo sapiens), P13569 [F508del]" group=0
line_notation=CSc1cccc(Nc2nc(-c3ccc(F)c(Br)c3)cs2)c1 system="Cystic fibrosis transmembrane conductance regulator (Homo sapiens), P13569 [F508del]" group=1
line_notation=CSc1cccc(Nc2nc(-c3ccc4c(c3)OCCCO4)cs2)c1 system="Cystic fibrosis transmembrane conductance regulator (Homo sapiens), P13569 [F508del]" group=0
line_notation=COc1cc2c(cc1OC)CN(c1csc(Nc3cccc(SC)c3)n1)CC2 system="Cystic fibrosis transmembrane conductance regulator (Homo sapiens), P13569 [F508del]" group=0
line_notation=CSc1cccc(Nc2nc(-c3ccc(Cl)c([N+](=O)[O-])c3)cs2)c1 system="Cystic fibrosis transmembrane conductance regulator (Homo sapiens), P13569 [F508del]" group=0
line_notation=CSc1cccc(Nc2nc(-c3ccc(C(F)(F)F)cc3)cs2)c1 system="Cystic fibrosis transmembrane conductance regulator (Homo sapiens), P13569 [F508del]" group=0
line_notation=CSc1cccc(Nc2nc(-c3cc4ccccc4o3)cs2)c1 system="Cystic fibrosis transmembrane conductance regulator (Homo sapiens), P13569 [F508del]" group=0
line_notation=CSc1cccc(Nc2nc(-c3cccc(OCC(=O)OC(C)(C)C)c3)cs2)c1 system="Cystic fibrosis transmembrane conductance regulator (Homo sapiens), P13569 [F508del]" group=0
line_notation=CSc1cccc(Nc2nc(-c3ccc(Br)c([N+](=O)[O-])c3)cs2)c1 system="Cystic fibrosis transmembrane conductance regulator (Homo sapiens), P13569 [F508del]" group=0
line_notation=CSc1cccc(Nc2nc(-c3cccnc3)cs2)c1 system="Cystic fibrosis transmembrane conductance regulator (Homo sapiens), P13569 [F508del]" group=0
line_notation=CSc1cccc(N(C)c2nc(-c3cccc(Cl)c3)cs2)c1 system="Cystic fibrosis transmembrane conductance regulator (Homo sapiens), P13569 [F508del]" group=0
line_notation=CSc1cccc(Nc2nc(Cc3ccc(Br)cc3)cs2)c1 system="Cystic fibrosis transmembrane conductance regulator (Homo sapiens), P13569 [F508del]" group=0
line_notation=CSc1cccc(Nc2nc(-c3cc(C(C)(C)C)c(O)c(C(C)(C)C)c3)cs2)c1 system="Cystic fibrosis transmembrane conductance regulator (Homo sapiens), P13569 [F508del]" group=0
line_notation=CSc1cccc(Nc2nc(-c3ccc(F)c(Cl)c3)cs2)c1 system="Cystic fibrosis transmembrane conductance regulator (Homo sapiens), P13569 [F508del]" group=1
line_notation=O=C(Nc1nc(-c2ccc(Br)cc2)cs1)c1ccccc1 system="Cystic fibrosis transmembrane conductance regulator (Homo sapiens), P13569 [F508del]" group=0
line_notation=CSc1cccc(Nc2nc(-c3ccc(F)cc3)cs2)c1 system="Cystic fibrosis transmembrane conductance regulator (Homo sapiens), P13569 [F508del]" group=0
line_notation=CSc1cccc(Nc2nc(-c3cccc(NC(C)=O)c3)cs2)c1 system="Cystic fibrosis transmembrane conductance regulator (Homo sapiens), P13569 [F508del]" group=0
line_notation=CSc1cccc(Nc2nc(-c3cc(F)cc(Cl)c3)cs2)c1 system="Cystic fibrosis transmembrane conductance regulator (Homo sapiens), P13569 [F508del]" group=0
line_notation=CSc1cccc(Nc2nc(-c3cccc(Cl)c3)cs2)c1 system="Cystic fibrosis transmembrane conductance regulator (Homo sapiens), P13569 [F508del]" group=1
line_notation=CCCOc1ccc(-c2csc(Nc3cccc(SC)c3)n2)cc1 system="Cystic fibrosis transmembrane conductance regulator (Homo sapiens), P13569 [F508del]" group=0
line_notation=CSc1cccc(Nc2nc(-c3ccc(Cl)cc3Cl)cs2)c1 system="Cystic fibrosis transmembrane conductance regulator (Homo sapiens), P13569 [F508del]" group=0
line_notation=CCCCCc1ccc(-c2csc(Nc3cccc(SC)c3)n2)cc1 system="Cystic fibrosis transmembrane conductance regulator (Homo sapiens), P13569 [F508del]" group=0
line_notation=CSc1cccc(Nc2nc(-c3cc(Cl)cc(OC(F)(F)F)c3)cs2)c1 system="Cystic fibrosis transmembrane conductance regulator (Homo sapiens), P13569 [F508del]" group=0
line_notation=CSc1cccc(Nc2nc(-c3cccc(Br)c3)cs2)c1 system="Cystic fibrosis transmembrane conductance regulator (Homo sapiens), P13569 [F508del]" group=1
line_notation=CSc1cccc(Nc2nc(-c3cc(Cl)ccc3Cl)cs2)c1 system="Cystic fibrosis transmembrane conductance regulator (Homo sapiens), P13569 [F508del]" group=0
line_notation=CSc1cccc(Nc2nc(-c3cccs3)cs2)c1 system="Cystic fibrosis transmembrane conductance regulator (Homo sapiens), P13569 [F508del]" group=1
